- measurement.target: DNA polymerase iota (Homo sapiens) (UniProt Q9UNA4)
- Sequence (Q9UNA4 whole entry, looked up): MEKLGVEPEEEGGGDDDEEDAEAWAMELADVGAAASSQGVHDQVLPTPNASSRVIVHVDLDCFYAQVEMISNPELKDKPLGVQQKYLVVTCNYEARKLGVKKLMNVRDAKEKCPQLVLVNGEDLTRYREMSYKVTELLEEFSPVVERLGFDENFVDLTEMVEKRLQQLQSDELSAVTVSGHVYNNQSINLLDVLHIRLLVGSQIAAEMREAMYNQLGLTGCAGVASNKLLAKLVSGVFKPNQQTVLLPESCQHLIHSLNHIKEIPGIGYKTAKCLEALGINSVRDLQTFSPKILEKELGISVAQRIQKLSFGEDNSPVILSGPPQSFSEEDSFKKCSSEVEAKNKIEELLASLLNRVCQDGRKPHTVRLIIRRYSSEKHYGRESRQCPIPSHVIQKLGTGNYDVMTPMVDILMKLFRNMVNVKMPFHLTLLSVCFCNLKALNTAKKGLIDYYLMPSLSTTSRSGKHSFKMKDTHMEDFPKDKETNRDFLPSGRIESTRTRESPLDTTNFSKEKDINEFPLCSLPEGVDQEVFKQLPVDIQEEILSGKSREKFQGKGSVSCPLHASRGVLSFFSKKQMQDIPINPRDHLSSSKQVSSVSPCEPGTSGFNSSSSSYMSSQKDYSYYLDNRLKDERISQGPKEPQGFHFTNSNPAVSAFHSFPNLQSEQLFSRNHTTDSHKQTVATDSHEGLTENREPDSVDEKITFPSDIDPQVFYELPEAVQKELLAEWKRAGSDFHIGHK
- assay.text: qHTS for Inhibitors of Polymerase Iota
- protocol.conditions: Pol iota fluorescent replication assay, 10 min; series mostly up to 115 µM
The campaign covered roughly 390,000 compounds. About 4,000 (1%) were called active. Roughly 7% stayed inconclusive and do not appear here. Calls follow the shape of the dose curve; as a rule, active = well fitted inhibition curve with a large enough effect; inconclusive = small, poorly fitted or top-dose-only effect, or another doubt; inactive = no such curve, though single readings can be large or run the other way. The list comes from a sample in which actives are over-represented; it also holds close analogues and randomly drawn compounds.
Can you answer with just one of these options? Yes for active, No for inactive

> print(dat)
                                   molecule                        measurement.target  assigned.category
1  Cc1cccc(N(C(=O)Cc2cccs2)C(C(=O)NCc2ccco2)c2ccncc2)c1 (stereo unspecified)  DNA polymerase iota (Homo sapiens) (UniProt Q9UNA4)                 No
2        c1ccc(Cn2nnc3c(N4CCCCC4)ncnc32)cc1  DNA polymerase iota (Homo sapiens) (UniProt Q9UNA4)                 No
3  Cc1nc(C)c(C(=O)N(c2ccc(C)c(C)c2)C(C(=O)NCc2ccco2)c2ccccc2)s1 (stereo unspecified)  DNA polymerase iota (Homo sapiens) (UniProt Q9UNA4)                Yes
4  CCN(CC)C(=O)CSc1nc2ccsc2c(=O)n1Cc1ccccc1Cl  DNA polymerase iota (Homo sapiens) (UniProt Q9UNA4)                 No
5    COc1ccc(NC(=O)COCc2cc(-c3ccco3)on2)cc1  DNA polymerase iota (Homo sapiens) (UniProt Q9UNA4)                 No
6  Cc1ccc(-n2ncc3c(=O)n(-c4ccc(C)c(C)c4)c(-c4ccco4)nc32)cc1  DNA polymerase iota (Homo sapiens) (UniProt Q9UNA4)                 No

With those in mind, consider the next molecule.
In this assay, the call recorded for Cc1ccc(CCNC(=O)c2ccc(CNS(=O)(=O)c3ccc(C)cc3)cc2)cc1 was what?
No

* * *

- measurement.target: DNA polymerase iota (Homo sapiens) (UniProt Q9UNA4)
- assay.text: qHTS for Inhibitors of Polymerase Iota
- protocol.conditions: Pol iota fluorescent replication assay, 10 min; series mostly up to 115 µM
In all, about 390,000 compounds went through this assay and about 4,000 (1%) were called active. Another 7% or so got no clear call; they are omitted. Calls come from the whole dose curve; as a rule, active = well fitted inhibition curve with a large enough effect; inconclusive = small, poorly fitted or top-dose-only effect, or another doubt; inactive = no such curve, though single readings can be large or run the other way. The sample as a whole holds a higher share of actives than the screen did.
Can you answer with just one of these options? active, inactive

Record excerpt, results attached:
> print(dat)
                                   molecule  assigned.category
1  CCCCc1nn2c(=O)cc(COC(=O)c3ccccc3NC(=O)C(C)(C)C)nc2s1           inactive
2  CCOc1ccc(C(=O)/C=C/c2cn(CC(O)CN3CCCCCC3)c3ccccc23)cc1 (configuration not stated)           inactive
3       Cc1cccc(OCC(=O)NCCNC(=O)c2cccnc2)c1           inactive
4  Cc1nnc(SCC2=C(C(=O)O)N3C(=O)C(NC(=O)Cn4nc(C)c(Cl)c4C)C3SC2)s1 (configuration not stated)           inactive
5  CC(C)C1N=C2c3ccccc3N=C(SCC(=O)c3ccc(O)c(O)c3)N2C1=O (configuration not stated)             active

In this assay, the call recorded for COc1ccc(-c2ccnc(SCC(=O)N3CCOCC3)n2)cc1 was what?
inactive

In this assay, the call recorded for OC(CBr)C[n+]1cccc2cc(Br)ccc21 (configuration not stated) was what?
inactive

In this assay, the call recorded for CC(=O)c1cc(NC(=O)c2ccccc2)c(=O)oc1/C=C/N(C)C was what?
inactive

* * *

- measurement.target: DNA polymerase iota (Homo sapiens)
- assay.text: qHTS for Inhibitors of Polymerase Iota
- protocol.conditions: Pol iota fluorescent replication assay, 10 min; series mostly up to 115 µM
The whole screen tested about 390,000 compounds, of which about 4,000 (1%) were called active. About 7% were inconclusive and are not listed. Calls follow the shape of the dose curve; as a rule, active = well fitted inhibition curve with a large enough effect; inconclusive = small, poorly fitted or top-dose-only effect, or another doubt; inactive = no such curve, though single readings can be large or run the other way. What follows is part of a selection rich in actives, with near analogues and random picks from the rest.
Can you answer with just one of these options? active, inactive

> print(dat)
                                   compound                  measurement.target  assigned.category
1  COc1ccc(OC)c(-n2nnc(-c3nc(-c4cc(OC)c(OC)c(OC)c4)no3)c2C)c1  DNA polymerase iota (Homo sapiens)           inactive
2  C=C1c2c(Cl)ccc(O)c2C(O)=C2C(=O)[C@]3(O)C(O)=C(C(N)=O)C(=O)[C@@H](N(C)C)[C@@H]3[C@@H](O)C12 (stereo partly specified)  DNA polymerase iota (Homo sapiens)             active
3  CCc1ccc(NC(=O)C2CCCN2S(=O)(=O)c2ccc3nc(-c4ccccc4)[nH]c3c2)cc1 (stereo unspecified)  DNA polymerase iota (Homo sapiens)             active
4  CC1(C)CCc2cc(S(=O)(=O)N3CCN(c4nc(-c5cccs5)nc5ccccc45)CC3)ccc2O1  DNA polymerase iota (Homo sapiens)           inactive
5     COc1ccc(OC)c(NC(=O)/C=C/c2ccc(C)o2)c1  DNA polymerase iota (Homo sapiens)           inactive
6  CC(=O)Nc1ccc(NC(=O)C2CCCN2S(=O)(=O)c2cccc(C(F)(F)F)c2)cc1 (stereo unspecified)  DNA polymerase iota (Homo sapiens)           inactive

In this assay, the call recorded for Cc1cc(C)c2nc(-c3ccco3)cc(C(=O)O)c2c1 was what?
active

* * *

- measurement.target: DNA polymerase iota (Homo sapiens)
- assay.text: qHTS for Inhibitors of Polymerase Iota
- protocol.conditions: Pol iota fluorescent replication assay, 10 min; series mostly up to 115 µM
Among all 390,000 compounds or so, about 4,000 (1%) were called active. Inconclusive results (about 7%) are left out. Calls come from the whole dose curve; as a rule, active = well fitted inhibition curve with a large enough effect; inconclusive = small, poorly fitted or top-dose-only effect, or another doubt; inactive = no such curve, though single readings can be large or run the other way. The entries come from a sample that favours actives as a whole.
Can you answer with just one of these options? active, inactive

> print(dat)
                                   compound  assigned.category
1  Cc1ccc(Cn2c(=O)n(Cc3nc(-c4ccccc4)no3)c(=O)c3cc4c(cc32)OCO4)cc1           inactive
2  COc1ccc(Cl)cc1C(=O)NNC(=S)NC(=O)/C=C/c1ccco1           inactive
3      O=C(CNC(=O)c1ccc2ccccc2c1)Nc1ncccc1O           inactive

In this assay, the call recorded for CCN(C(=O)COC(=O)CCOc1cccc(C)c1)c1c(N)n(Cc2ccccc2)c(=O)[nH]c1=O was what?
inactive

In this assay, the call recorded for CCOC(=O)c1c(SCC(=O)Nc2cccc(C)c2C)nc(=O)[nH]c1C was what?
inactive

* * *

- measurement.target: DNA polymerase iota (Homo sapiens) (UniProt Q9UNA4)
- assay.text: qHTS for Inhibitors of Polymerase Iota
- protocol.conditions: Pol iota fluorescent replication assay, 10 min; series mostly up to 115 µM
About 4,000 (1%) of roughly 390,000 compounds were called active. Not shown: some 7% with an inconclusive outcome. Calls follow the shape of the dose curve; as a rule, active = well fitted inhibition curve with a large enough effect; inconclusive = small, poorly fitted or top-dose-only effect, or another doubt; inactive = no such curve, though single readings can be large or run the other way. The full list was thinned out, with actives kept by preference.
Can you answer with just one of these options? y = active, n = inactive

Record excerpt, results attached:
> print(dat)
                                   compound  assigned.category
1  CS(=O)(=O)c1ccc2c(c1)SC1=NC(=O)/C(=C/c3ccco3)C(=N)N12                  y
2  CC1CCC2(CC1)N=C(c1ccccc1)C(=O)N2CC(=O)Nc1ccc(F)c(Cl)c1 (stereo not given)                  n

In this assay, the call recorded for CCCN1CCN(CCCNC(=O)c2cnn(-c3ccc(C)cc3)c2-n2cccc2)CC1 was what?
n

In this assay, the call recorded for Cc1nc2nc(SCC(=O)NCc3ccco3)nn2c(C)c1Cc1ccccc1 was what?
y

In this assay, the call recorded for Cc1ccc2nc(/C(C#N)=C/c3ccc(-c4ccc(C(=O)OC(C)C)cc4)o3)[nH]c2c1 was what?
n

In this assay, the call recorded for Cc1cccc(CN2Cc3cccc4c3[C@H](C=CC4)CC2=S)c1 was what?
n

In this assay, the call recorded for Cc1ccc(C)c(NC(=S)NNC(=S)Nc2ccc(C(C)C)cc2)c1 was what?
n

In this assay, the call recorded for CC(=O)N1CCCc2cc(S(=O)(=O)N3CCC(C(=O)NCc4ccc(F)cc4)CC3)ccc21 was what?
n

In this assay, the call recorded for Cc1ccc2nc(-c3ccc(C)c(NC(=O)Cc4ccccc4)c3)oc2c1 was what?
n

In this assay, the call recorded for Cc1ccc(NC(=O)CN2C(=O)C(c3ccc(F)cc3)=NC23CCCCCC3)c(C)c1 was what?
y

* * *

- measurement.target: DNA polymerase iota (Homo sapiens) (UniProt Q9UNA4)
- assay.text: qHTS for Inhibitors of Polymerase Iota; also: potency is read from the fitted curve at half-maximal effect
- protocol.conditions: Pol iota fluorescent replication assay, 10 min; series mostly up to 115 µM
Among all 390,000 compounds or so, about 4,000 (1%) were called active. About 7% were inconclusive and are not listed. The full list was thinned out, with actives kept by preference.
outcome.measure: Potency

Example results:
> print(dat)
                                   molecule            result
1  CC(=O)N(C1=C(Cl)C(=O)c2ccccc2C1=O)c1ccc(C(=O)O)cc1  3.16 µM (active)
2  CCCCN(CC)CCCNC(=O)c1nn(C)c2c1CS(=O)(=O)c1ccccc1-2          inactive
3  CC(C)(C)OC(=O)N1CCC(c2c(C(=O)NCc3ccccn3)cnn2-c2ccc(F)cc2)CC1          inactive
4  COc1ccc(NC(=O)c2ccco2)cc1NC(=O)COc1ccc(C)c(C)c1  70.8 µM (active)
5  Cc1ccc(NC(=O)CSc2nc3c(c(=O)[nH]2)CN(Cc2ccc4c(c2)OCO4)CC3)cc1C          inactive
6  Cc1cccc(CCNC(=O)c2ccc3c(c2)nc2n3CCC(C)C2)c1 (stereo not given)          inactive

State recorded Potency with DNA polymerase iota (Homo sapiens) (UniProt Q9UNA4), entry Cc1cc(OC(C)C(=O)Nc2sc3c(c2C(N)=O)CCCC3)ccc1Cl (stereo not given) , no comment.
inactive

State recorded Potency with DNA polymerase iota (Homo sapiens) (UniProt Q9UNA4), entry COc1ccc(C2Nc3ccc(NC(=O)COC(C)=O)cc3C(=O)N2Cc2ccccc2)cc1COc1ccc(NC(C)=O)cc1 (stereo not given) , no comment.
inactive

State recorded Potency with DNA polymerase iota (Homo sapiens) (UniProt Q9UNA4), entry Cc1oc2c(c1C(=O)N1CCOCC1)C(=O)c1ccccc1C2=O , no comment.
inactive

State recorded Potency with DNA polymerase iota (Homo sapiens) (UniProt Q9UNA4), entry CCc1ccc(OCCCn2c(CCCNC(=O)C3CCCCC3)nc3ccccc32)cc1 , no comment.
inactive

State recorded Potency with DNA polymerase iota (Homo sapiens) (UniProt Q9UNA4), entry O=c1[nH]n(-c2ccc([N+](=O)[O-])cc2)c(=O)c2ccccc12 , no comment.
10 µM (active)

State recorded Potency with DNA polymerase iota (Homo sapiens) (UniProt Q9UNA4), entry C=CCc1c(C)nc2cc(-c3ccccc3)[nH]n2c1=O , no comment.
inactive

State recorded Potency with DNA polymerase iota (Homo sapiens) (UniProt Q9UNA4), entry O=C1c2ccccc2-c2ncnc3c(N4CCOCC4)cc(N4CCOCC4)c1c23 , no comment.
inactive

State recorded Potency with DNA polymerase iota (Homo sapiens) (UniProt Q9UNA4), entry Cc1ccc(S(=O)(=O)N2CCCc3cc(NS(=O)(=O)c4cc(C)ccc4C)ccc32)cc1 , no comment.
inactive

State recorded Potency with DNA polymerase iota (Homo sapiens) (UniProt Q9UNA4), entry COc1c(O)cc2oc(-c3ccc(O)c(O)c3)cc(=O)c2c1O , no comment.
7.94 µM (active)

State recorded Potency with DNA polymerase iota (Homo sapiens) (UniProt Q9UNA4), entry COc1ccc(OC)c(NC(=O)CN2CCCN(Cc3cc(C)ccc3C)S2(=O)=O)c1 , no comment.
inactive

State recorded Potency with DNA polymerase iota (Homo sapiens) (UniProt Q9UNA4), entry COc1ccc(C(=O)n2nc(-c3ccc(Cl)cc3)nc2N)cc1OC , no comment.
inactive

State recorded Potency with DNA polymerase iota (Homo sapiens) (UniProt Q9UNA4), entry CCCC(=O)n1nc(-c2ccccc2)nc1N , no comment.
79.4 µM (active)

State recorded Potency with DNA polymerase iota (Homo sapiens) (UniProt Q9UNA4), entry Cc1ccc(-n2c(=O)c3cccnc3n2CC(=O)NCc2ccc(F)cc2)cc1C , no comment.
inactive

State recorded Potency with DNA polymerase iota (Homo sapiens) (UniProt Q9UNA4), entry Cc1ccc(OCC(=O)Nc2ccccc2C(=O)NC2CC2)cc1C , no comment.
inactive

State recorded Potency with DNA polymerase iota (Homo sapiens) (UniProt Q9UNA4), entry CCOc1ccc(N(C)S(=O)(=O)c2cc(-c3cnc(C)o3)ccc2OC)cc1 , no comment.
inactive

State recorded Potency with DNA polymerase iota (Homo sapiens) (UniProt Q9UNA4), entry CC/C=C/C(=O)N1CC2(CC(c3cccc(NC(=O)CC)c3)=NO2)C[C@H]1C(N)=O (stereo not given in full) , no comment.
inactive

State recorded Potency with DNA polymerase iota (Homo sapiens) (UniProt Q9UNA4), entry COc1ccc(CCNC(=O)c2ccc3c(c2)nc(C)n3-c2ccc(Br)cc2)cc1OC , no comment.
inactive

State recorded Potency with DNA polymerase iota (Homo sapiens) (UniProt Q9UNA4), entry COC1=C(N2CCOCC2)C(=O)c2ccccc2C1=O , no comment.
14.1 µM (active)

State recorded Potency with DNA polymerase iota (Homo sapiens) (UniProt Q9UNA4), entry CCC(C)N(c1ccc(/C=C/c2ccnc3ccccc23)cc1)C(C)CC (stereo not given) , no comment.
inactive

State recorded Potency with DNA polymerase iota (Homo sapiens) (UniProt Q9UNA4), entry CC1CCCCN1S(=O)(=O)c1ccc(F)c(C(=O)Nc2ccccc2C(F)(F)F)c1 (stereo not given) , no comment.
inactive

State recorded Potency with DNA polymerase iota (Homo sapiens) (UniProt Q9UNA4), entry Cn1c(SCC(=O)N2CCCc3ccccc32)ncc(C(=O)Nc2ccc(F)cc2)c1=O , no comment.
inactive

State recorded Potency with DNA polymerase iota (Homo sapiens) (UniProt Q9UNA4), entry CC1CCN(S(=O)(=O)c2ccc3c(ccn3CCC(=O)NCc3ccc(N(C)C)cc3)c2)CC1 , no comment.
inactive

State recorded Potency with DNA polymerase iota (Homo sapiens) (UniProt Q9UNA4), entry CO[C@H]1O[C@@H]2O[C@@]3(C)CC[C@@H]4[C@@H](C)CC[C@@H]([C@H]1C)[C@@]24OO3 , no comment.
inactive

State recorded Potency with DNA polymerase iota (Homo sapiens) (UniProt Q9UNA4), entry CCOC(=O)C1CCC(CN(Cc2ccc(OC)cc2)S(=O)(=O)c2ccc(F)c(C(=O)Nc3cc(C)ccc3C)c2)CC1 (stereo not given) , no comment.
inactive
